TARGET OR SYSTEM: CD3 (antigen of the binding affinity table of Example 1) (UniProt P07766)
PROCEDURE TEXT: kinetic fit with two-state parameters; method not given
# koff per record follows
ATTRIBUTE MEASURED: koff (s⁻¹)

{"BINDER": "H3L6 (antibody, V domains shown) VH: QVQLVQSGAEVKKPGASVKMSCKASGYTFTRYTMHWVRQAPGQGLEWIGYINPSRGYTNYNQKFKDRATMTTDKSISTAYMELSRLRSDDTAVYYCARYYDDHYSLDYWGQGTTLTVSS VL: DIQMTQSPSSLSASVGDRVTITCSASSSVSYMNWYQQKPGKAPKLWIYDTSKLASGVPSRFSGSGSGTDYTLTISSLQPEDFATYYCQQWSSNPFTFGSGTKLEINR", "VALUE MEASURED": 0.0814}
{"BINDER": "H4L5 (antibody, V domains shown) VH: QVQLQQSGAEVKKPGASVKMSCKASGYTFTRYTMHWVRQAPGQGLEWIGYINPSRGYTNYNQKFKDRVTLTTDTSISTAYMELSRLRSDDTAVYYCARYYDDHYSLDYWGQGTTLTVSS VL: DIQMTQSPSSLSASVGDRVTITCSASSSVSYMNWYQQKPGKAPKRWIYDTSKLASGVPSRFSGSGSGTDFTLTISSLQPEDFATYYCQQWSSNPFTFGSGTKLEINR", "VALUE MEASURED": 0.141}
